protocol: Human HepG2 cell viability assay in 384 well format
Type: toxicity, cell-based
Parameters: dose 125 nL, time 70.5 hour; concentration not given beside the values
measurement parameters: HepG2 cells, read-out: Inhibition
readout kind: cytotoxicity at 70.5 h

Solved cases (5 shown):
# compound, cytotoxicity at 70.5 h
rows = [
    ("Cc1noc(C2CCC3(CCN(C(=O)c4ccn(C)n4)CC3)O2)n1 (stereo unspecified)", "10.4%"),
    ("Nc1nc(N2CCCCC2)ncc1C(=O)NCc1ccc(F)c(Cl)c1", "-20%"),
    ("Cc1nc(CC2CCCN(Cc3nc(N)c4ccccc4n3)C2)no1 (stereo unspecified)", "-7.12%"),
    ("CC(C)n1cnc(-c2nc(C(=O)N3CCCC3)c3ccccn23)c1", "-2.79%"),
    ("COc1c(C2CCCN2C(=O)c2c[nH]c3ncccc23)c(C)nn1C (stereo unspecified)", "-5.62%"),
]

Recorded cytotoxicity at 70.5 h (compound "CNC(=O)CN1CCO[C@H]2CN(C(=O)C3CC3)C[C@H]21" ): -2.66%

// field: cytotoxicity at 70.5 h; key: "CC(C)OCCCN(Cc1ccncc1)Cc1cc(F)cc(F)c1" ; value = 58.6%

Measured cytotoxicity at 70.5 h of "CCc1nc(CN2CCCN(C(=O)C3CCOCC3)CC2)cs1" : 18.1%

Lab note: measured cytotoxicity at 70.5 h of O=C1CC(N(C(=O)CCc2c[nH]c3ccccc23)C2CC2)C(=O)N1 (stereo unspecified) was -14.1%

get_value(item= Cc1nc(COc2ccc(OC(C)C(N)=O)cc2)oc1C (stereo unspecified) , readout=cytotoxicity at 70.5 h) returns -0.152%

* * *

Each item that follows carries a reported cytotoxicity at 70.5 h.
protocol: Human HepG2 cell viability assay in 384 well format
Assay type: toxicity, cell-based
Set-up: dose 125 nL, time 70.5 hour; concentration not given beside the values
measurement parameters: HepG2 cells, read-out: Inhibition
Supply the numeric figure in %, leaving out any unit text.

Below are worked cases with known answers.
# molecule, readout kind, numeric readout
records = [
    ("CC(C)n1ccnc1CNC(=O)c1cccc(CCC(C)(C)O)c1", "cytotoxicity at 70.5 h", -10.5),
    ("COc1cccc(CC2CCCN2CCCO)c1 (configuration not stated)", "cytotoxicity at 70.5 h", -2.11),
    ("Cc1cc(NC(=O)CN2CCn3c(nnc3C3CC3)C2)n(C)n1", "cytotoxicity at 70.5 h", 7.81),
    ("CC(Cn1ccnc1)NCc1n[nH]c2c1CCC2 (configuration not stated)", "cytotoxicity at 70.5 h", -20.8),
    ("CC(=O)c1cn(CC(=O)N2CCC(O)(CO)CC2)c2ccccc12", "cytotoxicity at 70.5 h", -0.902),
]

According to the records, this molecule "CC(C)CNC(=O)c1ccc(NC(=O)NCC2CC2)cc1Cl" displays cytotoxicity at 70.5 h of -12.7

* * *

protocol: Human HepG2 cell viability assay in 384 well format
Type: toxicity, cell-based
Set-up: dose 125 nL, time 70.5 hour; concentration not given beside the values
measurement parameters: HepG2 cells, read-out: Inhibition
readout kind: cytotoxicity at 70.5 h (%)
Output spec: scalar in %, unitless text.

# compound, units, cytotoxicity at 70.5 h
records = [
    ("O=C1CSC(C(F)(F)F)c2c(O)nn(C3CCCCC3)c2N1 (stereo unspecified)", "%", 15.2),
]

Briefly, cytotoxicity at 70.5 h measured for "N#Cc1cccnc1N[C@@H]1c2ccccc2C[C@@H]1O" : -16.4

// sample "O=C(NCc1ccc(N2CCCC2)nc1)N1CCc2sccc2C1" , its cytotoxicity at 70.5 h was -0.866

* * *

# cytotoxicity at 70.5 h values compiled below
protocol: Human HepG2 cell viability assay in 384 well format
Assay type: toxicity, cell-based
Parameters: dose 125 nL, time 70.5 hour; concentration not given beside the values
measurement parameters: HepG2 cells, read-out: Inhibition
Entry rule: numbers only, all in %.

# compound, cytotoxicity at 70.5 h (%)
records = [
    ("O=C(C1CCOCC1)N1CCc2ncc(CN3CCCCC3)n2CC1", -10.2),
    ("CCO[C@H]1CO[C@@]2(CCCN(S(=O)(=O)c3ccccc3)C2)C1", 1.01),
    ("COCc1nc2ncc3c(=O)n(-c4cccc(OC)c4)ccc3n2n1", 27.8),
]

// "Cc1nc2cc(C(=O)N3CCn4c(nnc4C4CC4)C3)ccc2s1" : cytotoxicity at 70.5 h value = -2.23

* * *

Recorded cytotoxicity at 70.5 h values for a group of molecules are listed next.
protocol: Human HepG2 cell viability assay in 384 well format
Type: toxicity, cell-based
Design: dose 125 nL, time 70.5 hour; concentration not given beside the values
measurement parameters: HepG2 cells, read-out: Inhibition
Write the number in % without appending the unit.

Worked examples follow.
# molecule, units, numeric readout
rows = [
    ("Cc1ccc(N2CCCC(NCc3ccc(Cl)o3)C2)nn1 (stereo unspecified)", "%", -1.97),
    ("Cn1nnc2c1CCN(C(=O)C1CC1)C2COCCN1CCCC1 (stereo unspecified)", "%", -3.87),
    ("O=C([C@@H]1CN(Cc2nccs2)C[C@H]2OCC[C@H]21)N1CCOCC1", "%", -7.1),
    ("Cn1ncc2c(NCC3CCS(=O)(=O)C3)nc(C3CCCC3)nc21 (stereo unspecified)", "%", -3.73),
]

The molecule listed as "Cn1cc(N2CC3(CCN(Cc4ccoc4)CC3)OCC2=O)cn1" has a reported cytotoxicity at 70.5 h of -1.7

cytotoxicity at 70.5 h measured on "Cc1cnc(CCN(C)C(=O)c2cccc(C)c2O)s1" = -5.87

The value of cytotoxicity at 70.5 h measured for the molecule CC(C)n1cnnc1C1CCCN(S(=O)(=O)c2c[nH]cn2)C1 (stereo unspecified) turned out to be -78.9

* * *

protocol: Human HepG2 cell viability assay in 384 well format
Format: toxicity, cell-based
Set-up: dose 125 nL, time 70.5 hour; concentration not given beside the values
measurement parameters: HepG2 cells, read-out: Inhibition
readout kind: cytotoxicity at 70.5 h (%)
Write the answer as a number in %, unit excluded.

# molecule, units, cytotoxicity at 70.5 h
rows = [
    ("CCCS(=O)(=O)N1CCC2(CC1)CC(=O)N(CCCc1ccccc1)C2", "%", 23.4),
]

// cytotoxicity at 70.5 h lookup, molecule = "Cc1ncc(CN2C[C@H]3C[C@H](OCc4ccccc4)C[C@H]3C2)cn1" , result: -6.93

# cytotoxicity at 70.5 h (molecule: "CCNC(=O)NC[C@H]1COCc2nc3cc(OC)ccc3n21" ) is -10.9

Please fill in: cytotoxicity at 70.5 h reported for "C[C@@H]1CN(C(=O)c2ccc(=O)[nH]c2)CC[C@@]1(O)C1CCOCC1" = 1.36

The molecule identified as O=C1CC(Nc2ccc3nccnc3n2)CN1c1ccccc1 (stereo unspecified) registered its cytotoxicity at 70.5 h at -2.9

Field cytotoxicity at 70.5 h (entry "Cc1cccc(CN2CCN(C(=O)[C@@H]3CSCN3C)CC2)c1" ) reads -13.3

# molecule COc1ccc(N2CCN(C(=O)C3CN(C)C(=O)N3)CC2(C)C)cc1 (stereo unspecified) ; its cytotoxicity at 70.5 h = -8.78

Sample "Cc1noc(-c2ccnc(N3CCC(N4CCCC4)CC3)c2)n1" ; cytotoxicity at 70.5 h observed: -8.66

Reported cytotoxicity at 70.5 h for "CC(C)N1CCC2(CC1)CC(=O)N(Cc1cc(F)cc(F)c1)C2" was -2.98

# molecule Cc1ccccc1-c1csc2c(=O)[nH]c(N3CCCC(C(=O)O)C3)nc12 (stereo unspecified) ; its cytotoxicity at 70.5 h = 14.6

The value of cytotoxicity at 70.5 h measured for the molecule O=C(C1CCCOC1)N(CC(F)F)c1cccc(Cl)c1 (stereo unspecified) turned out to be 2.67

* * *

protocol: Human HepG2 cell viability assay in 384 well format
Type: toxicity, cell-based
Set-up: dose 125 nL, time 70.5 hour; concentration not given beside the values
measurement parameters: HepG2 cells, read-out: Inhibition
readout kind: cytotoxicity at 70.5 h (%)
# number only, unit % dropped from output

Observe how each entry below is paired with its result.
# compound, cytotoxicity at 70.5 h (%)
rows = [
    ("CC(NC(=O)NC1CCN(Cc2ccncc2)CC1)c1ccccc1F (stereo unspecified)", -22.4),
    ("Cc1cc(C(=O)N2CCCN(Cc3cnn(C(C)C)c3)CC2)no1", -3),
    ("Cc1cccc(NC(=O)N2CCCn3cnc(CN4CCCC4)c3C2)c1", -1.43),
    ("CC(=O)Nc1nccn1Cc1ccccc1Cl", -2.67),
    ("CC(NC(=O)N1CCN(c2ncccn2)CC1)c1ccc(C#N)cc1 (stereo unspecified)", -4.87),
]

Turning now to a further record.
"Cn1ccnc1SCCNc1cc(N2CCOCC2)ncn1" yielded cytotoxicity at 70.5 h of -19.6
